This collection of values is drawn from patent US20190202925A1.

- test_target: T1, cynomolgus TNFR2 on cells (cynomolgus)
- T1 construct: whole, on cells; also called cynomolgus TNFR2 on CD4+ and CD8+ T cells
- measurement_protocol: flow cytometry on cynomolgus PBMC, antibody at 10 ug/mL, anti-human Fc-PE secondary
reported_metric: % CD8^+ ab^+ Donor 2 (%)
// units = %; emit number, no label

Lab note: measured % CD8^+ ab^+ Donor 2 of chimeric SBT-004 (antibody, V domains shown, VH fused to a human IgG1 Fc domain; also called chSBT-004) VH: EVQLQQSGPEVGRPGSSVKISCKASGYTFTDYIMHWVKQSPGQGLEWIGWVDPEYGSTDYAEKFKKKATLTADTSSNTAYIQLSSLTSEDTATYFCARDDGSYSPFDYWGQGVMVTVSS VL: DIQMTQSPPSLSASLGDKVTITCQASQNINKYIAWYQQKPGKAPRLLIRYTSTLESGTPSRFSGSGSGRDYSFSISNVESEDIASYYCLQYVNLLTFGAGTKLEIK was 18.4
